# Test system: CAKI-1 renal
# ASSAY_EXPLANATION: NCI tumour cell line growth inhibition, 48 h
Recorded GI50, one value per entry.

- COMPOUND: "Nc1cc(N)c2nc(-c3ccccc3)c(Nc3ccc(Cl)c(Cl)c3)nc2c1"
  GI50: "13.5 µM"
- COMPOUND: "C=CC(=O)N1CC2(CCN(c3nc(OC4CCN(CCCOC)CC4)nc4c(OCC(F)(F)F)c(-c5c(C)ccc6[nH]ncc56)c(C5CC5)cc34)CC2)C1"
  GI50: "4.15 µM"
- COMPOUND: "Nc1nc(Cl)c2ncn(Cc3ccc(C45CC6CC(CC(C6)C4)C5)c(O)c3)c2n1"
  GI50: "1.77 µM"
- COMPOUND: "COc1cc([N+](=O)[O-])cc2c3c(n(C)c12)[C@@]1(C)CCC2c4ccc(OCc5ccccc5)cc4CCC2C1C3 (stereo partly drawn)"
  GI50: "86.6 µM"
- COMPOUND: "O=C1Nc2c(C(F)(F)F)cccc2[C@]1(c1ccc(O)cc1)c1ccc(OC(F)(F)F)cc1"
  GI50: "10.1 µM"
- COMPOUND: "[Cl-].[Dy+3].[O-]/N=C(\\c1ccccc1)c1ccccn1.[O-]/N=C(\\c1ccccc1)c1ccccn1.[O-]/N=C(\\c1ccccc1)c1ccccn1"
  GI50: "31 µM"
- COMPOUND: "CCOC(=O)[C]1([Bi]([CH3])[CH3])N=NC(C(=O)OC)=C1C(=O)OC (stereo not drawn)"
  GI50: "15.9 µM"
- COMPOUND: "O=c1/c(=C/c2ccco2)sc2nc3ccccc3n12"
  GI50: "> 100 µM"

----------
# Tested on: SW-620 colon
# ASSAY_EXPLANATION: NCI tumour cell line growth inhibition, 48 h
Recorded TGI, one value per entry.
PROPERTY_NAME: TGI

- COMPOUND: "C=C1C(=O)O[C@H]2[C@H]1CC/C(Cn1cc(-c3ccc(OC)cc3)nn1)=C\\CC[C@@]1(C)O[C@@H]21"
  EXPERIMENTAL_SYSTEM: "SW-620 colon"
  PROPERTY_NAME: "TGI"
  RESULT: "1.74 µM"
- COMPOUND: "O=C1C(Cl)N(c2ccccc2[N+](=O)[O-])C1c1c[nH]c2ccccc12 (centres undefined)"
  EXPERIMENTAL_SYSTEM: "SW-620 colon"
  PROPERTY_NAME: "TGI"
  RESULT: "> 100 µM"
- COMPOUND: "NC(N)=NS(=O)(=O)c1ccc(NC(=O)c2ccc3nc4ccccc4c(Nc4ccc(S(=O)(=O)N=C(N)N)cc4)c3c2)cc1"
  EXPERIMENTAL_SYSTEM: "SW-620 colon"
  PROPERTY_NAME: "TGI"
  RESULT: "> 100 µM"
- COMPOUND: "CC1(C)C=C(S(=O)(=O)c2ccccc2)Oc2ccccc2O1"
  EXPERIMENTAL_SYSTEM: "SW-620 colon"
  PROPERTY_NAME: "TGI"
  RESULT: "> 100 µM"
- COMPOUND: "Brc1cccc(C=NC23CC4CC(CC(C4)C2)C3)c1"
  EXPERIMENTAL_SYSTEM: "SW-620 colon"
  PROPERTY_NAME: "TGI"
  RESULT: "> 100 µM"
- COMPOUND: "CCOC(=O)C(NC(=O)CC(C)C)(N1CCN(c2cc3c(cc2F)c(=O)c(C(=O)O)cn3C2CC2)CC1)C(F)(F)F (centres undefined)"
  EXPERIMENTAL_SYSTEM: "SW-620 colon"
  PROPERTY_NAME: "TGI"
  RESULT: "74.1 µM"
- COMPOUND: "Cc1c2ncccc2cc2oc3ccccc3c(=O)c12"
  EXPERIMENTAL_SYSTEM: "SW-620 colon"
  PROPERTY_NAME: "TGI"
  RESULT: "> 100 µM"
- COMPOUND: "COc1ccc(/C=C/c2nccc3ccccc23)cc1OC"
  EXPERIMENTAL_SYSTEM: "SW-620 colon"
  PROPERTY_NAME: "TGI"
  RESULT: "> 10 µM"
- COMPOUND: "O=C(CSc1n[nH]c(=O)[nH]c1=O)NNC(=O)c1cccc2nc3ccccc3nc12"
  EXPERIMENTAL_SYSTEM: "SW-620 colon"
  PROPERTY_NAME: "TGI"
  RESULT: "> 100 µM"
- COMPOUND: "FC(F)(F)c1cccc(Nc2nccc(-c3cnn4nc(-c5ccccc5)ccc34)n2)c1"
  EXPERIMENTAL_SYSTEM: "SW-620 colon"
  PROPERTY_NAME: "TGI"
  RESULT: "> 21.4 µM"
- COMPOUND: "CCC(=O)Oc1c2ccsc2c(OC(=O)CC)c2ccsc12"
  EXPERIMENTAL_SYSTEM: "SW-620 colon"
  PROPERTY_NAME: "TGI"
  RESULT: "2.33 µM"
- COMPOUND: "COCc1nc2c(OC)cc(-c3nc4ccc(N5CCN(C)CC5)cc4[nH]3)c(OC)c2[nH]1"
  EXPERIMENTAL_SYSTEM: "SW-620 colon"
  PROPERTY_NAME: "TGI"
  RESULT: "> 100 µM"
- COMPOUND: "C=c1c(OC)c(OC)c(O)c2c1=c1cc([N+](=O)[O-])cc(OC)c1=N2"
  EXPERIMENTAL_SYSTEM: "SW-620 colon"
  PROPERTY_NAME: "TGI"
  RESULT: "> 100 µM"
- COMPOUND: "O=c1/c(=C/c2ccco2)sc2nc3ccccc3n12"
  EXPERIMENTAL_SYSTEM: "SW-620 colon"
  PROPERTY_NAME: "TGI"
  RESULT: "> 100 µM"
